These measurements were taken from PubChem BioAssay (EPA / NIEHS).

Read-out: solute carrier (SLCO1B1), SLCO1B1 (gene 10599)
RUN_DESCRIPTION: LTEA_HepaRG_SLCO1B1: Life Technologies and Expression Analysis (LTEA) Assay for solute carrier (SLCO1B1) using HepaRG (AID 2283530)
APPLIED_CONDITIONS: mRNA level, 48 h; actives raise or lower the signal
Procedure: LTEA_HepaRG is a cell based, multiplexed-readout assay that uses HepaRG, a human liver cell line, with measurements taken at 48 hours after chemical dosing on a 96-well plate.LTEA_HepaRG_SLCO1B1 is one of 102 assay component(s) measured in the LTEA HepaRG cell culture assay. It is a marker of NR mediated transport.Data from the assay component LTEA_HepaRG_SLCO1B1 was analyzed into 1 endpoint. […]
Activity calls are given as the source filed them. How the source made its calls: active means hit-call score of the fitted dose curve at least 0.9, where 1 is the maximum; inactive means score below 0.9.
Reply using exactly one outcome from active, inactive

Incoming: What classification did ClC1=C(Cl)[C@]2(Cl)[C@@H]3[C@@H](Cl)[C@H]4O[C@H]4[C@@H]3C1(Cl)C2(Cl)Cl end up with in this test?
Outgoing: inactive

Incoming: What classification did Nc1ccc(-c2ccc(N)cc2)cc1 end up with in this test?
Outgoing: inactive

Incoming: What classification did C1CC2OC2CC1C1CO1 (stereo not given) end up with in this test?
Outgoing: inactive

Incoming: What classification did CC(C)C(=O)OCC(C)(C)C(OC(=O)C(C)C)C(C)C (stereo not given) end up with in this test?
Outgoing: inactive

Incoming: What classification did CC1=C2C[C@H]3[C@@H](CC=C4C[C@@H](O)CC[C@@]43C)[C@@H]2CC[C@]12O[C@@H]1C[C@H](C)CN[C@H]1[C@H]2C end up with in this test?
Outgoing: inactive

Incoming: What classification did CCOCCOC(C)=O end up with in this test?
Outgoing: inactive

Incoming: What classification did Clc1ccc(C(Cl)(Cl)Cl)cc1 end up with in this test?
Outgoing: inactive

Incoming: What classification did ClC(Cl)=C(c1ccc(Cl)cc1)c1ccc(Cl)cc1 end up with in this test?
Outgoing: inactive

Incoming: What classification did N#Cc1ccc(N(CC(N)=O)CC(F)(F)F)cc1C(F)(F)F end up with in this test?
Outgoing: inactive

Incoming: What classification did Cc1ccccc1O end up with in this test?
Outgoing: inactive

Incoming: What classification did CCCCCCCCCc1ccc(O)cc1 end up with in this test?
Outgoing: inactive

Incoming: What classification did CO/C=C(/C(=O)OC)c1ccccc1COc1cccc(C(F)(F)F)n1 end up with in this test?
Outgoing: active

Incoming: What classification did Cc1cccc([N+](=O)[O-])c1 end up with in this test?
Outgoing: inactive

Incoming: What classification did CCCCCCCCCC[N+](C)(C)CCCCCCCCCC end up with in this test?
Outgoing: inactive

Incoming: What classification did CCCCCCOC(=O)c1ccccc1C(=O)OCCCCCC end up with in this test?
Outgoing: inactive

----------
ASSAYED_TARGET: Paired box protein Pax-6 (Homo sapiens) (UniProt P26367)
Sequence (P26367 whole entry, looked up): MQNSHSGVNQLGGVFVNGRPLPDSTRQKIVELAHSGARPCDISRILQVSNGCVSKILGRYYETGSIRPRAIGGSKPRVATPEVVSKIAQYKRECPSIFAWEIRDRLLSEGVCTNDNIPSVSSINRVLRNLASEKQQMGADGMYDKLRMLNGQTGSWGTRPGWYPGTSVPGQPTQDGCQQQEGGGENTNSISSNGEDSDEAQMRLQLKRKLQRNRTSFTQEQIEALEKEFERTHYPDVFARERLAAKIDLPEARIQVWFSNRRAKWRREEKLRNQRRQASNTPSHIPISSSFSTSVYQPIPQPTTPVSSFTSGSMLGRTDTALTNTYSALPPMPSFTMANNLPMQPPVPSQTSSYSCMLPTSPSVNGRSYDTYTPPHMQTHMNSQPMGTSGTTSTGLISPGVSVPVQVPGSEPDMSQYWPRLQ
RUN_DESCRIPTION: ATG_Pax6_CIS: Attagene CIS-FACTORIAL HepG2 Assay for human Paired Box 6 (PAX6) (AID 2282956)
APPLIED_CONDITIONS: HepG2 CIS-FACTORIAL PAX6 reporter transcription, RNA readout; actives raise or lower the signal
Activity calls are given as the source filed them. How the source made its calls: active means hit-call score of the fitted dose curve at least 0.9, where 1 is the maximum; inactive means score below 0.9.
ASSAY_ENDPOINT: outcome

Look over these answered cases.
[
  {
    "COMPOUND": "O=NN(c1ccccc1)c1ccccc1",
    "ASSAYED_TARGET": "Paired box protein Pax-6 (Homo sapiens) (UniProt P26367)",
    "outcome": "inactive"
  },
  {
    "COMPOUND": "CCCN(CCC)N=O",
    "ASSAYED_TARGET": "Paired box protein Pax-6 (Homo sapiens) (UniProt P26367)",
    "outcome": "inactive"
  },
  {
    "COMPOUND": "C1CC2OC2CC1C1CO1 (stereo not given)",
    "ASSAYED_TARGET": "Paired box protein Pax-6 (Homo sapiens) (UniProt P26367)",
    "outcome": "inactive"
  },
  {
    "COMPOUND": "CCCCCCCCCc1ccc(O)cc1",
    "ASSAYED_TARGET": "Paired box protein Pax-6 (Homo sapiens) (UniProt P26367)",
    "outcome": "inactive"
  }
]

Field: next compound
Incoming: // fetch outcome given entry O=C(O)C(F)(F)C(F)(F)C(F)(F)C(F)(F)C(F)(F)F
Outgoing: inactive

----------
ASSAYED_TARGET: Estrogen receptor (Homo sapiens)
RUN_DESCRIPTION: CCTE_Deisenroth_AIME_384WELL_LUC_Active: CCTE's 384-well Estrogen Receptor Transactivation Assay with AIME metabolic competence (ERTA luciferase; metabolism positive), Deisenroth Lab (AID 2284030)
Results filed as inconclusive are left out. The source made the active and inactive calls. Rule for the calls: active = hit-call score of the fitted dose curve at least 0.9, where 1 is the maximum; inconclusive = response in the unintended direction; inactive = score below 0.9.
Reply using exactly one outcome from active, inactive

Incoming: What classification did Cc1cc(-c2ccc(N)c(C)c2)ccc1N end up with in this test?
Outgoing: active

Incoming: What classification did O=C(N[C@H]1CN2CCC1CC2)c1cc2ccoc2cn1 end up with in this test?
Outgoing: inactive

Incoming: What classification did Cc1cccc([N+](=O)[O-])c1 end up with in this test?
Outgoing: inactive

----------
Read-out: JUN Transcription Factor, JUN (gene 3725)
RUN_DESCRIPTION: LTEA_HepaRG_JUN: Life Technologies and Expression Analysis (LTEA) Assay for JUN Transcription Factor using HepaRG (AID 2283513)
APPLIED_CONDITIONS: mRNA level, 48 h; actives raise or lower the signal
Active and inactive are the calls of the source. Rule for the calls: active = hit-call score of the fitted dose curve at least 0.9, where 1 is the maximum; inactive = score below 0.9.
Reply using exactly one outcome from True for active, False for inactive

Incoming: What classification did CCOP(=S)(OCC)SCSC(C)(C)C end up with in this test?
Outgoing: False

Incoming: What classification did CCCCCCCCCC[N+](C)(C)CCCCCCCCCC end up with in this test?
Outgoing: True

Incoming: What classification did CCC(C)(CC)c1cc(NC(=O)c2c(OC)cccc2OC)on1 end up with in this test?
Outgoing: False

Incoming: What classification did O=NN(c1ccccc1)c1ccccc1 end up with in this test?
Outgoing: False

Incoming: What classification did CN(C)c1nc(=O)n(C2CCCCC2)c(=O)n1C end up with in this test?
Outgoing: False

----------
Read-out: UDP glucuronosyltransferase (UGT1A6), UGT1A6 (gene 54578)
RUN_DESCRIPTION: LTEA_HepaRG_UGT1A6: Life Technologies and Expression Analysis (LTEA) Assay for UDP glucuronosyltransferase (UGT1A6) using HepaRG (AID 2283539)
APPLIED_CONDITIONS: mRNA level, 48 h; actives raise or lower the signal
The source made the active and inactive calls. The calls were made as follows: active = hit-call score of the fitted dose curve at least 0.9, where 1 is the maximum; inactive = score below 0.9.
Reply using exactly one outcome from active, inactive

Incoming: What classification did Clc1ccc(Cl)cc1 end up with in this test?
Outgoing: inactive

Incoming: What classification did CC(c1ccc(O)cc1)(c1ccc(O)cc1)c1ccc(O)cc1 end up with in this test?
Outgoing: active

Incoming: What classification did NS(=O)(=O)C(F)(F)C(F)(F)C(F)(F)C(F)(F)C(F)(F)C(F)(F)C(F)(F)C(F)(F)F end up with in this test?
Outgoing: active

Incoming: What classification did CCCCCCCCOC(=O)c1ccccc1C(=O)OCCCCCCCC end up with in this test?
Outgoing: inactive

Incoming: What classification did CCC(=O)O[C@H]1CC[C@H]2[C@@H]3CCC4=CC(=O)CC[C@]4(C)[C@H]3CC[C@]12C end up with in this test?
Outgoing: inactive

Incoming: What classification did O=C(N[C@H]1CN2CCC1CC2)c1cc2ccoc2cn1 end up with in this test?
Outgoing: inactive

----------
Read-out: Fatty Acid-Binding Protein 1 (FABP1), FABP1 (gene 2168)
RUN_DESCRIPTION: LTEA_HepaRG_FABP1: Life Technologies and Expression Analysis (LTEA) Assay for Fatty Acid-Binding Protein 1 (FABP1) using HepaRG (AID 2283494)
APPLIED_CONDITIONS: mRNA level, 48 h; actives raise or lower the signal
Active and inactive are the calls of the source. The calls were made as follows: active = hit-call score of the fitted dose curve at least 0.9, where 1 is the maximum; inactive = score below 0.9.
Reply using exactly one outcome from active, inactive

Incoming: What classification did C=CC(=O)NCNC(=O)C=C end up with in this test?
Outgoing: active

Incoming: What classification did CCC(=O)O[C@H]1CC[C@H]2[C@@H]3CCC4=CC(=O)CC[C@]4(C)[C@H]3CC[C@]12C end up with in this test?
Outgoing: active

Incoming: What classification did CN(C)c1nc(=O)n(C2CCCCC2)c(=O)n1C end up with in this test?
Outgoing: inactive

Incoming: What classification did C[C@]12CCC(=O)C=C1CC[C@@H]1[C@@H]2CC[C@@]2(C)[C@H]1CC[C@]2(C)O end up with in this test?
Outgoing: inactive

Incoming: What classification did C=CC(N)=O end up with in this test?
Outgoing: inactive

Incoming: What classification did CCCN(CCC)N=O end up with in this test?
Outgoing: inactive

Incoming: What classification did ClC1=C(Cl)[C@]2(Cl)[C@@H]3[C@H]4C[C@H]([C@@H]5O[C@H]45)[C@@H]3[C@@]1(Cl)C2(Cl)Cl end up with in this test?
Outgoing: active

Incoming: What classification did Cc1cc2c3c(c1)C(c1ccccc1)=N[C@@H](NC(=O)c1ccncc1)C(=O)N3CC2 end up with in this test?
Outgoing: active

Incoming: What classification did O=C(N[C@H]1CN2CCC1CC2)c1cc2ccoc2cn1 end up with in this test?
Outgoing: inactive

Incoming: What classification did Cc1ccccc1[N+](=O)[O-] end up with in this test?
Outgoing: inactive

Incoming: What classification did c1ccc(-c2ccccc2)cc1 end up with in this test?
Outgoing: inactive

Incoming: What classification did Cc1cccc(C)c1N end up with in this test?
Outgoing: inactive

Incoming: What classification did CCSC(=O)N(CC)C1CCCCC1 end up with in this test?
Outgoing: inactive

Incoming: What classification did CCOCCOC(C)=O end up with in this test?
Outgoing: inactive

Incoming: What classification did NS(=O)(=O)C(F)(F)C(F)(F)C(F)(F)C(F)(F)C(F)(F)C(F)(F)C(F)(F)C(F)(F)F end up with in this test?
Outgoing: active

Incoming: What classification did COS(=O)(=O)OC end up with in this test?
Outgoing: inactive

Incoming: What classification did Clc1ccc(C(c2ccccc2Cl)C(Cl)(Cl)Cl)cc1 (centres undefined) end up with in this test?
Outgoing: active

Incoming: What classification did CCCCCCCCOC(=O)c1ccccc1C(=O)OCCCCCCCC end up with in this test?
Outgoing: inactive

Incoming: What classification did Oc1c(Cl)c(Cl)c(Cl)c(Cl)c1Cl end up with in this test?
Outgoing: active

Incoming: What classification did CC(C)(O)C(=O)Nc1ccc([N+](=O)[O-])c(C(F)(F)F)c1 end up with in this test?
Outgoing: active

Incoming: What classification did Cc1cc(-c2ccc(N)c(C)c2)ccc1N end up with in this test?
Outgoing: active

Incoming: What classification did N#Cc1ccc(N(CC(N)=O)CC(F)(F)F)cc1C(F)(F)F end up with in this test?
Outgoing: active

Incoming: What classification did CC(C)(c1ccccc1)c1ccc(O)cc1 end up with in this test?
Outgoing: inactive

Incoming: What classification did CC(c1ccc(O)cc1)(c1ccc(O)cc1)c1ccc(O)cc1 end up with in this test?
Outgoing: active
